Assay Comment: Teratogenicity study, intravenous route, rabbits
Type: in vivo, rabbit
Study Conditions: female, rabbit, in vivo, 12 μg/m^2/day, read-out: fetal NOAEL
Description: Teratogenicity studies with ingenol mebutate were performed by the intravenous route in rats and rabbits. In rats, ingenol mebutate was not associated with fetal developmental effects at doses up to 5 μg/kg/day (30 μg/m^2/day). The fetal NOAEL was 1 μg/kg/day (12 μg/m^2/day).
Quantity Kind: NOAEL (mg/kg/day)
Just the number in mg/kg/day, nothing appended.

Input: Reported NOAEL for C/C=C(/C)C(=O)O[C@H]1C(C)=C[C@]23C(=O)[C@@H](C=C(CO)[C@@H](O)[C@]12O)[C@H]1[C@@H](C[C@H]3C)C1(C)C [ingenol mebutate] : what is it?
Output: 0.001
